src = the supplement of paper PMC11780869

# System: Bacillus subtilis
# test: cleaved RNA product abundance (RNA/gDNA barcode ratio) relative to median wild-type variant (ratio to wild type); higher = more accumulation of the downstream cleavage product
# conditions_used: experiment (reporter, strain, medium): exp 8a: truncated aprE reporter, strain BJT201 with 2% xylose (RNase J1 expressed); cleavage site: glnRA (positions -5 to +31 mutated)
Assign criterion met to entries whose cleaved RNA product abundance meets or exceeds 0.3; assign criterion not met to the rest.

Reference set, count: 6
{"sequence_code": "CGACATGTCCCGCTTCTTTCATTAATCCTTTAAAAAGTGTTTTGCTATATACATTTACCTTTTAAGAGGAGGAAT", "tested_system": "Bacillus subtilis", "label": "criterion not met"}
{"sequence_code": "CGACATGTCCCGCTTCTTTCATTAATCCGTTAGCAACTGTTTTACAATATACATTTACCTTTTAAGAGGAGGAAT", "tested_system": "Bacillus subtilis", "label": "criterion met"}
{"sequence_code": "CGACATGTCCCGCTTCTTTCATTAATCCCTTATCAACTGTTTTGCTATATACATTTACCTTTTAAGAGGAGGAAT", "tested_system": "Bacillus subtilis", "label": "criterion not met"}
{"sequence_code": "CGACATGTCCCGCTTCTTTCATTAATCAGTTAGAAACTGTTTTGCTATATACATTTACCTTTTAAGAGGAGGAAT", "tested_system": "Bacillus subtilis", "label": "criterion met"}
{"sequence_code": "CGACATGTCCCGCTTCTTTCATTAATCCGTTAGCAACTGTTATCCTATATACATTTACCTTTTAAGAGGAGGAAT", "tested_system": "Bacillus subtilis", "label": "criterion met"}
{"sequence_code": "CGACATGTCCCGCTTCTTTCATTAATCCGTCAGCAAATGTTTTGCTATATACATTTACCTTTTAAGAGGAGGAAT", "tested_system": "Bacillus subtilis", "label": "criterion met"}

As a next step, examine the sequence that follows.
Reported cleaved RNA product abundance at or above 0.3? `CGACATGTCCCGCTTCTTTCATTAATCCTTTAGAAACTGTTTTGCTATATACATTTACCTTTTAAGAGGAGGAAT`
criterion not met

----------
Examples of sequences with documented cleaved RNA product abundance follow.
# Test system: Bacillus subtilis
# test: cleaved RNA product abundance (RNA/gDNA barcode ratio) relative to median wild-type variant (ratio to wild type); higher = more accumulation of the downstream cleavage product
# conditions_used: experiment (reporter, strain, medium): exp 4a: truncated aprE reporter, strain BJT201 with 2% xylose (RNase J1 expressed); cleavage site: cggR-gapA (positions -7 to +36 mutated)
Reply briefly: the number, and no unit.

Examples from the recorded data:
{"sequence_code": "ACAGACGAAGGAGCCGCAAAGAAGTTATTAAGGGATCAATAACCCCTCAATATAAATATCTCTCACTTATTTAAA", "tested_system": "Bacillus subtilis", "endpoint_result": 0.561}
{"sequence_code": "ACAGACGAAGGAGCCGCAAAGAAGTTATTAAGGGATTAATAAACCCTCAATATAAATATCTCTCACTTATTTAAA", "tested_system": "Bacillus subtilis", "endpoint_result": 0.575}
{"sequence_code": "ACAGACGAAGGAGCCGCAAAGAATTTATTAAGGGATGAATAATGCCTCAATATAAATATCTCTCACTTATTTAAA", "tested_system": "Bacillus subtilis", "endpoint_result": 0.177}
{"sequence_code": "ACAGACGAAGGAGCCGCAAATTAGTTATTAAGGGATGAAAAATCCCTCAATATAAATATCTCTCACTTATTTAAA", "tested_system": "Bacillus subtilis", "endpoint_result": 0.655}
{"sequence_code": "ACAGACGAAGGAGCCGCAAAGAAGTTATTAACGGATGAATACTCCCTCAATATAAATATCTCTCACTTATTTAAA", "tested_system": "Bacillus subtilis", "endpoint_result": 0.133}
{"sequence_code": "ACAGACGAAGGAGCCGCAAAGAAGTTATTAAGGGATGAATAATCTCTCAATATAAAAATCTCTCACTTATTTAAA", "tested_system": "Bacillus subtilis", "endpoint_result": 0.43}

Now for a further sequence.
# query: cleaved RNA product abundance | item `ACAGACGAAGGAGCCGCAAAGAAGTTATTAAGGGATGAATAATCCCTCTACATAAATATCTCTCACTTATTTAAA` | system: Bacillus subtilis
0.441
